# System: MOLM-13 cells
# assay info: Cell viability assay (CellTiter-Glo) in MOLM-13 cells
# Type: cell-based
# study conditions: MOLM-13 cells, with gilteritinib, three days; read-out: MOLM-13 IC50 (nM) + 10 nM Gil
# Experimental: Cell Culture: RS4;11, MV4;11, MOLM-13 and other cells were cultured at 37° C. with 5% CO2 in RPMI 1640 or DMEM Medium supplemented with 10% fetal bovine serum. Cells were authenticated using the short tandem repeat (STR) assays. Mycoplasma test results were negative. Cell viability assays: Cells were seeded at a density of 5000 cells per well in 96-well assay plates and treated with test compounds following a 8-point or 12-point 3-fold serial dilution. […]
Hi there, I'd appreciate the recorded IC50 for every entry that follows.

Field: example entries. Status: answers known.
molecule	IC50
CN1CCC(n2ncc3cnc(-c4cn([C@H]5C[C@H](CNc6ccc7c(c6)C(=O)N(C6CCC(=O)NC6=O)C7=O)C5)nc4C4CC4)cc32)CC1 (some centres unmarked) [GS-770]	10 to 100 nM
O=C1CCC(N2C(=O)c3ccc(NC[C@H]4C[C@H](n5cc(-n6ccc7cccnc76)c(C6CC6)n5)C4)cc3C2=O)C(=O)N1 (some centres unmarked) [GS-751]	< 10 nM
O=C1CCC(N2C(=O)c3ccc(NC[C@H]4C[C@H](n5cc(-c6ncc(F)cc6OC6CC6)c(C6CC6)n5)C4)cc3C2=O)C(=O)N1 (some centres unmarked) [GS-752]	< 10 nM

Consider the following items and state reported IC50 for each.
1. O=C1CCC(N2C(=O)c3ccc(NC[C@H]4C[C@H](n5cc(-c6cnc7ccc(N8CC(O)C8)cc7n6)c(C6CC6)n5)C4)cc3C2=O)C(=O)N1 (some centres unmarked) [GS-644]
2. Cc1ccc2c(C3CC3)nn([C@H]3C[C@H](CNc4ccc5c(c4)C(=O)N(C4CCC(=O)NC4=O)C5=O)C3)c2n1 (some centres unmarked) [GS-672]
3. Cc1nc(-c2cn([C@H]3C[C@H](C#Cc4ccc5c(c4)CN(C4CCC(=O)NC4=O)C5=O)C3)nc2C2CC2)ccc1F (some centres unmarked) [GS-754]

< 10 nM
100 to 1000 nM
100 to 1000 nM

Consider the following items and state reported IC50 for each.
1. O=C1CCC(N2Cc3cc(NC[C@H]4C[C@H](n5cc(-c6ncc(F)c7cccnc67)c(C6CC6)n5)C4)ccc3C2=O)C(=O)N1 (some centres unmarked) [GS-788]
2. O=C1CCC(N2C(=O)c3ccc(NC[C@H]4C[C@H](n5cc(C6CCCC(O)C6)c(C6CC6)n5)C4)cc3C2=O)C(=O)N1 (some centres unmarked) [GS-703]
3. Cn1nccc1Nc1cn([C@H]2C[C@H](CNc3ccc4c(c3)C(=O)N(C3CCC(=O)NC3=O)C4=O)C2)nc1C1CC1 (some centres unmarked) [GS-784]
4. O=C1CCC(N2C(=O)c3ccc(NC[C@H]4C[C@H](n5ncc6ccccc65)C4)cc3C2=O)C(=O)N1 (some centres unmarked) [GS-728]
5. Cc1ccnc2c1c(C1CC1)nn2[C@H]1C[C@H](CNc2ccc3c(c2)C(=O)N(C2CCC(=O)NC2=O)C3=O)C1 (some centres unmarked) [GS-679]
6. O=C1CCC(N2C(=O)c3ccc(NC[C@H]4C[C@H](n5cc(-c6ncccc6OC6CC6)c(C6CC6)n5)C4)cc3C2=O)C(=O)N1 (some centres unmarked) [GS-641]
7. Cc1cccc2cnn([C@H]3C[C@H](CNc4ccc5c(c4)C(=O)N(C4CCC(=O)NC4=O)C5=O)C3)c12 (some centres unmarked) [GS-693]

1. < 10 nM
2. 10 to 100 nM
3. 100 to 1000 nM
4. 10 to 100 nM
5. 100 to 1000 nM
6. < 10 nM
7. 100 to 1000 nM

Consider the following items and state reported IC50 for each.
1. O=C1CCC(N2C(=O)c3ccc(NC[C@H]4C[C@H](n5cc(-c6ncc(F)c7cccnc67)c(C6CC6)n5)C4)cc3C2=O)C(=O)N1 (some centres unmarked) [GS-697]
2. O=C1CCC(N2C(=O)c3ccc(NCC4CC(n5cc(-c6cnc7cc(C8CNC8)ccc7n6)c(C6CC6)n5)C4)cc3C2=O)C(=O)N1 (centres unmarked) [GS-746]
3. CC(C)n1ncc2cnc(-c3cn([C@H]4C[C@H](CNc5ccc6c(c5)C(=O)N(C5CCC(=O)NC5=O)C6=O)C4)nc3C(F)F)cc21 (some centres unmarked) [GS-656]
4. O=C1CCC(N2C(=O)c3ccc(NC[C@H]4C[C@H](n5cc(-c6ccc7[nH]ccc7n6)c(C6CC6)n5)C4)cc3C2=O)C(=O)N1 (some centres unmarked) [GS-720]
5. Cc1cccc(-c2cn(C3CC4(CC(CNc5ccc6c(c5)C(=O)N(C5CCC(=O)NC5=O)C6=O)C4)C3)nc2C2CC2)n1 (centres unmarked) [GS-775]

< 10 nM
10 to 100 nM
10 to 100 nM
10 to 100 nM
100 to 1000 nM

Consider the following items and state reported IC50 for each.
1. CC(C)n1ncc2nc(-c3cn([C@H]4C[C@H](CNc5ccc6c(c5)C(=O)N(C5CCC(=O)NC5=O)C6=O)C4)nc3C3CC3)ccc21 (some centres unmarked) [GS-700]
2. O=C1CCC(N2C(=O)c3ccc(NC[C@H]4C[C@H](n5cc(-c6cc7c(cn6)cnn7C6CC(O)C6)c(C6CC6)n5)C4)cc3C2=O)C(=O)N1 (some centres unmarked) [GS-763]

1. 10 to 100 nM
2. < 10 nM

Consider the following items and state reported IC50 for each.
1. Cn1cc2c(-c3cn([C@H]4C[C@H](CNc5ccc6c(c5)C(=O)N(C5CCC(=O)NC5=O)C6=O)C4)nc3C3CC3)ncc(F)c2n1 (some centres unmarked) [GS-790]
2. N[C@H]1C[C@H](n2ncc3cnc(-c4cn([C@H]5C[C@H](CNc6ccc7c(c6)C(=O)N(C6CCC(=O)NC6=O)C7=O)C5)nc4C4CC4)cc32)C1 (some centres unmarked) [GS-776]
3. O=C1CCC(N2C(=O)c3ccc(NC[C@H]4C[C@H](n5cc(-n6ncc7cccnc76)c(C6CC6)n5)C4)cc3C2=O)C(=O)N1 (some centres unmarked) [GS-777]

1: < 10 nM; 2: < 10 nM; 3: < 10 nM

Consider the following items and state reported IC50 for each.
1. Cn1ccnc1-c1cn([C@H]2C[C@H](CNc3ccc4c(c3)C(=O)N(C3CCC(=O)NC3=O)C4=O)C2)nc1C1CC1 (some centres unmarked) [GS-687]
2. COc1cnc2c(c1)c(C1CC1)nn2[C@H]1C[C@H](CNc2ccc3c(c2)C(=O)N(C2CCC(=O)NC2=O)C3=O)C1 (some centres unmarked) [GS-682]
3. O=C1CCC(N2C(=O)c3ccc(NC[C@H]4C[C@H](n5cc(Nc6cccnc6)c(C6CC6)n5)C4)cc3C2=O)C(=O)N1 (some centres unmarked) [GS-670]

100 to 1000 nM
10 to 100 nM
10 to 100 nM

----------
# Test system: MV4;11 cells
# assay info: Cell viability assay (CellTiter-Glo) in MV4;11 cells
# Type: cell-based
# study conditions: Homo sapiens, MV4-11, 72 h, MV4;11 cells, compound alone, three days; read-out: MV4; 11 IC50
pIC50: −log10 of the molar value.
Hi there, I'd appreciate the recorded pIC50 for every entry that follows.

Field: example entries. Status: answers known.
compound	pIC50
Cc1nc(-c2cn([C@H]3C[C@H](CNc4ccc5c(c4)C(=O)N(C4CCC(=O)NC4=O)C5=O)C3)nc2C2CC2)cc2c1cnn2C (stereo partly drawn) [GS-747]	7.00 to 8.00
Cc1cc(F)cnc1-c1cn([C@H]2C[C@H](CNc3ccc4c(c3)CN(C3CCC(=O)NC3=O)C4=O)C2)nc1C1CC1 (stereo partly drawn) [GS-676]	> 8.00
Cc1nc(-c2cn([C@H]3C[C@H](CNc4ccc5c(c4)CN(C4CCC(=O)NC4=O)C5=O)C3)nc2C2CC2)ccc1F (stereo partly drawn) [GS-731]	> 8.00

Consider the following items and state reported pIC50 for each.
1. CC(C)n1ncc2nc(-c3cn([C@H]4C[C@H](CNc5ccc6c(c5)C(=O)N(C5CCC(=O)NC5=O)C6=O)C4)nc3C3CC3)ccc21 (stereo partly drawn) [GS-700]
2. O=C1CCC(N2C(=O)c3ccc(NC[C@H]4C[C@H](n5cc(-c6ncccc6C6CCNCC6)c(C6CC6)n5)C4)cc3C2=O)C(=O)N1 (stereo partly drawn) [GS-665]
3. Cc1nc(-c2cn(C[C@H]3C[C@H](Nc4ccc5c(c4)C(=O)N(C4CCC(=O)NC4=O)C5=O)C3)nc2C2CC2)ccc1F (stereo partly drawn) [GS-711]

6.00 to 7.00
< 6.00
< 6.00

----------
# Test system: MV4;11 cells
# assay info: Cell viability assay (CellTiter-Glo) in MV4;11 cells
# Assay type: cell-based
# study conditions: Homo sapiens, MV4-11, 72 h, MV4;11 cells, compound alone, three days; read-out: MV4; 11 IC50
pIC50: −log10 of the molar value.
measure: pIC50

Field: example entries. Status: answers known.
compound	observed
O=C1CCC(N2C(=O)c3ccc(NC[C@H]4C[C@H](n5cc(-c6ncc(F)cc6C6CCNCC6)c(C6CC6)n5)C4)cc3C2=O)C(=O)C1 (stereo partly shown) [GS-686]	< 6.00
Cn1ncc2ccc(-c3cn([C@H]4C[C@H](CNc5ccc6c(c5)C(=O)N(C5CCC(=O)NC5=O)C6=O)C4)nc3C3CC3)nc21 (stereo partly shown) [GS-729]	7.00 to 8.00

Consider the following items and state reported pIC50 for each.
1. NC1CCN(c2ccc3ncc(-c4cn([C@H]5C[C@H](CNc6ccc7c(c6)C(=O)N(C6CCC(=O)NC6=O)C7=O)C5)nc4C4CC4)nc3c2)C1 (stereo partly shown) [GS-706]
2. Cn1ccc2c(-c3cn([C@H]4C[C@H](CNc5ccc6c(c5)C(=O)N(C5CCC(=O)NC5=O)C6=O)C4)nc3C3CC3)ncc(F)c21 (stereo partly shown) [GS-768]

1: 7.00 to 8.00; 2: > 8.00
